Entries and their IC50
target: purified I-A^g7 (Mus musculus, UniProt P04228+Q31135); assay: biochemical; assay type: binding, NOD mouse
Sequence (P04228 24-256): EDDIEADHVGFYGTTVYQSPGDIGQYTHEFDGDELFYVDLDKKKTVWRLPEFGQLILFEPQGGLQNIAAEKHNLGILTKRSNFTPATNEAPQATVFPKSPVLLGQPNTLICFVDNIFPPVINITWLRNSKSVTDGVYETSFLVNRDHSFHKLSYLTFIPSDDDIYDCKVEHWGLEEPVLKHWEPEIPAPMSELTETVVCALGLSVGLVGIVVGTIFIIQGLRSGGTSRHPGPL
Sequence (Q31135 1-263): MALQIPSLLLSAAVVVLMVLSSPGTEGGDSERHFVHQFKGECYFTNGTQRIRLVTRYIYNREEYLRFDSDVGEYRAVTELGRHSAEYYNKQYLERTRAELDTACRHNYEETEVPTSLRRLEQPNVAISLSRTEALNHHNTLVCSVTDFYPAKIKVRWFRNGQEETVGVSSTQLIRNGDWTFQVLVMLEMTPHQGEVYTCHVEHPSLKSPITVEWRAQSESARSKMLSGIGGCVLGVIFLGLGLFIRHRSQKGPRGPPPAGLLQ
No end group written: not given here.
reported_metric: IC50 (nM)

> print(dat)
                             substance  measured.value
 1        MKRHGLDNYRGY-NH2 [HEL 12–23]             250
 2  AAMKRHGLDNYRGYSLGN-NH2 [HEL 10–27]             300
 3        AAAMKRHGLDNYR-NH2 [HEL 9–21]             300
 4       AAAMKRHGLDNYRG-NH2 [HEL 9–22]             300
 5    MKRHGLDNYRGYSLGN-NH2 [HEL 12–27]             300
 6         KRHGLDNYRGY-NH2 [HEL 13–23]             200
 7      RHGLDNYRGYSLGN-NH2 [HEL 14–27]            2000
 8   AMKRHGLDNYRGYSLGN-NH2 [HEL 11–27]             300
 9          KRHGLDNYRG-NH2 [HEL 13–22]             250
10  AAAMKRHGLDNYRGYSLGN-NH2 [HEL 9–27]             350
11     KRHGLDNYRGYSLGN-NH2 [HEL 13–27]             300
12    AAAMKRHGLDNYRGYSL-NH2 [HEL 9–25]             300
13       HGLDNYRGYSLGN-NH2 [HEL 15–27]           20000
14     AAAMKRHGLDNYRGYS-NH2 [HEL 9–24]             200
15   AAAMKRHGLDNYRGYSLG-NH2 [HEL 9–26]             300

Values were extracted from paper PMC2196246.
